testName: CCTE_Mundy_HCI_iCellGluta_NOG_NeuriteLength: CCTE's Neurite Outgrowth Assay in iCellGluta cells for Neurite Length, Mundy Lab (AID 2284318)
Records with an inconclusive call do not appear. Calls of active or inactive are those of the source. How the source made its calls: active means hit-call score of the fitted dose curve at least 0.9, where 1 is the maximum; inconclusive means response in the unintended direction; inactive means score below 0.9.
measurementName: AC50

CN(C)[C@@H]1C(=O)C(C(N)=O)=C(O)[C@@]2(O)C(=O)C3=C(O)c4c(O)cccc4[C@@](C)(O)[C@H]3[C@H](O)[C@@H]12; 24.6 µM (active)

# input for lookup
Input: Suppose we examine the compound "CC[C@H](C)[C@H]1O[C@]2(C=C[C@@H]1C)C[C@@H]1C[C@@H](C/C=C(\C)[C@@H](O[C@H]3C[C@H](OC)[C@@H](O[C@H]4C[C@H](OC)[C@@H](NC)[C@H](C)O4)[C@H](C)O3)[C@@H](C)/C=C/C=C3\CO[C@@H]4[C@H](O)C(C)=C[C@@H](C(=O)O1)[C@]34O)O2" ; what AC50 value has been reported?
Output: 0.811 µM (active)
